Each record here notes measured ratio.
# Assay Remarks: Selectivity ratio of Ki for dopamine D1 receptor to Ki for dopamine D2 receptor in rat forebrain
Measure Name: ratio

COc1cc2c3c(c1)-c1c(O)cccc1C[C@H]3N(C)CC2 | 0.2
CCCN1CCc2cc(OC)cc3c2[C@H]1Cc1cccc(O)c1-3 | 38
COc1cc2c3c(c1)-c1c(cccc1OC(C)=O)C[C@H]3N(C)CC2 | 3

====

# Assay Remarks: Selectivity ratio of Ki for dopamine D1 receptor to Ki for dopamine D2 receptor in rat forebrain
Measure Name: ratio

CN1CCc2cccc3c2[C@H]1Cc1ccc(O)c(O)c1-3 | 532
CCCCC(=O)Oc1cccc2c1-c1cc(OC)cc3c1[C@@H](C2)N(C)CC3 | 8
